TARGET_DESC: Proto-oncogene tyrosine-protein kinase Src (Homo sapiens) (UniProt P12931)
Sequence (P12931 2-536 limits assumed): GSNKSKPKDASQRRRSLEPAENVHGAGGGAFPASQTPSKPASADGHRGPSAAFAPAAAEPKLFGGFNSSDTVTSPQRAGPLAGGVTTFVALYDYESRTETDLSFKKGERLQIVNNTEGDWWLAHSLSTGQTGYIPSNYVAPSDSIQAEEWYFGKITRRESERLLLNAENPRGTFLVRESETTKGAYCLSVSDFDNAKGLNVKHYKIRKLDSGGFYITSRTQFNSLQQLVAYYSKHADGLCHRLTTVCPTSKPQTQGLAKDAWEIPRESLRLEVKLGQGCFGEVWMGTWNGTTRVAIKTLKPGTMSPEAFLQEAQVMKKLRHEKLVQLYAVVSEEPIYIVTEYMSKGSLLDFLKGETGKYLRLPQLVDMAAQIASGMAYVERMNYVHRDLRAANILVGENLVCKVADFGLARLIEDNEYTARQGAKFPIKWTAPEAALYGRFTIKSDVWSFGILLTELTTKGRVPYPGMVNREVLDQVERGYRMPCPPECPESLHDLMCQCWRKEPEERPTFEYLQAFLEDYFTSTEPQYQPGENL
EXPERIMENT_DESCRIPTION: Inhibition of SRC at 10 uM
Active and inactive are the calls of the source. The calls are words filed in the database; no cut-off is given here.

- STRUCTURE_STRING: "O=C1Cc2ccccc2Cc2cc(Nc3ccccc3)ccc21"
  inhibition: "inactive"
- STRUCTURE_STRING: "Nc1cc(F)ccc1Nc1ccc2c(c1)Cc1ccccc1CC2=O"
  inhibition: "inactive"
- STRUCTURE_STRING: "O=C1Cc2cc(Nc3ccccc3)ccc2Cc2ccccc21"
  inhibition: "inactive"
- STRUCTURE_STRING: "Nc1ccccc1Nc1ccc2c(c1)CC(=O)c1ccccc1C2"
  inhibition: "inactive"
- STRUCTURE_STRING: "Nc1ccccc1Nc1ccc2c(c1)Oc1ccccc1NC2=O"
  inhibition: "inactive"
- STRUCTURE_STRING: "Nc1ccc(Nc2ccc3c(c2)Cc2ccccc2CC3=O)cc1"
  inhibition: "inactive"
- STRUCTURE_STRING: "Nc1cc(F)ccc1Nc1ccc2c(c1)Oc1ccccc1NC2=O"
  inhibition: "inactive"
- STRUCTURE_STRING: "Nc1cc(F)ccc1Nc1ccc2c(c1)Cc1ccccc1C(=O)C2"
  inhibition: "inactive"
- STRUCTURE_STRING: "O=C1Cc2ccccc2Cc2cc(NCc3ccccc3)ccc21"
  inhibition: "inactive"
- STRUCTURE_STRING: "Nc1cc(F)ccc1Nc1ccc2c(c1)CC(=O)c1ccccc1C2"
  inhibition: "inactive"
- STRUCTURE_STRING: "O=C1Cc2ccc(Nc3ccccc3)cc2Cc2ccccc21"
  inhibition: "inactive"
- STRUCTURE_STRING: "O=C1Cc2ccccc2Cc2cc(-c3ccccc3)ccc21"
  inhibition: "inactive"
- STRUCTURE_STRING: "O=C1Cc2ccccc2Cc2cc(Nc3ccc(F)cc3F)ccc21"
  inhibition: "inactive"
- STRUCTURE_STRING: "Nc1ccccc1Nc1ccc2c(c1)Cc1ccccc1CC2=O"
  inhibition: "inactive"
- STRUCTURE_STRING: "Nc1ccccc1Nc1ccc2c(c1)C(=O)Cc1ccccc1C2"
  inhibition: "inactive"
- STRUCTURE_STRING: "Nc1ccccc1Nc1ccc2c(c1)Cc1ccccc1C(=O)C2"
  inhibition: "inactive"
